B1: SOAT1 (parent)
chain: PSNGRIDIKQLIAKKIKLTAEAEE

Variants of: B1
Assay: protein stability index of a GFP-peptide fusion (GPS, HEK-293T) (PSI 1-6); higher = more stable;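 also: lentivirally expressed fusions sorted by FACS into six bins by GFP to DsRed ratio, PSI derived from sequencing read proportions per bin multiplied by bin number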
Details: c terminus: a fixed tail appended
QUANTITY: protein stability index
Give a plain numeric answer without units written out.

As a guide, the following entries are already answered.
{"MUT": "I6E", "protein stability index": 4.06}
{"MUT": "K17H", "protein stability index": 3.02}
{"MUT": "I6P", "protein stability index": 3.37}
{"MUT": "A22V", "protein stability index": 2.94}

Next item in the queue.
Task item: Given the entry I6D , report its measured protein stability index.
Reply: 4.4
